Values were extracted from patent US20140179681A1.

molecular target: EGFR (Homo sapiens); construct: host or cells: A431; experiment: EGFR in-cell Western (ICW) screening protocol (EGFR inhibition assay); assay type: cell-based; parameters: unit not given here; conditions: ICW assay, run 2
Counter-ions that a name gives are not always drawn.
Binary call on ICW 2: y from 40 upward, n beneath that.

Examples with answers:
{"COMPOUND": "CCCc1c[nH]c(Nc2nc(-c3ccccc3)c3cc(Cl)ccc3n2)nc1=O [12660 + TFA]", "CLASS": "y"}
{"COMPOUND": "Cc1ccc2c(C)nc(Nc3nc(C(C)C)cc(=O)[nH]3)nc2c1", "CLASS": "y"}
{"COMPOUND": "Cc1ccc2nc(Nc3nc(=O)cc(-c4ccccc4)[nH]3)nc(C)c2c1", "CLASS": "y"}
{"COMPOUND": "CCOC(=O)c1c(N)nc(Nc2nc(C)c3cc(OC)ccc3n2)nc1-c1ccccc1", "CLASS": "y"}
{"COMPOUND": "Cc1cc(C)nc(Nc2nc(-c3ccccc3)c3ccc(Cl)cc3n2)n1 [compound 12636]", "CLASS": "y"}

# next compound below
Q: Is ICW 2 for O=c1[nH]c(Nc2nc(-c3ccccc3)c3cc(Cl)ccc3n2)nc2ccccc12 [11706 + TFA] at or above 40?
Ans: n

====

Target: EGFR (Homo sapiens, UniProt P00533)
Construct: host or cells: A431
Sequence (P00533 25-1210): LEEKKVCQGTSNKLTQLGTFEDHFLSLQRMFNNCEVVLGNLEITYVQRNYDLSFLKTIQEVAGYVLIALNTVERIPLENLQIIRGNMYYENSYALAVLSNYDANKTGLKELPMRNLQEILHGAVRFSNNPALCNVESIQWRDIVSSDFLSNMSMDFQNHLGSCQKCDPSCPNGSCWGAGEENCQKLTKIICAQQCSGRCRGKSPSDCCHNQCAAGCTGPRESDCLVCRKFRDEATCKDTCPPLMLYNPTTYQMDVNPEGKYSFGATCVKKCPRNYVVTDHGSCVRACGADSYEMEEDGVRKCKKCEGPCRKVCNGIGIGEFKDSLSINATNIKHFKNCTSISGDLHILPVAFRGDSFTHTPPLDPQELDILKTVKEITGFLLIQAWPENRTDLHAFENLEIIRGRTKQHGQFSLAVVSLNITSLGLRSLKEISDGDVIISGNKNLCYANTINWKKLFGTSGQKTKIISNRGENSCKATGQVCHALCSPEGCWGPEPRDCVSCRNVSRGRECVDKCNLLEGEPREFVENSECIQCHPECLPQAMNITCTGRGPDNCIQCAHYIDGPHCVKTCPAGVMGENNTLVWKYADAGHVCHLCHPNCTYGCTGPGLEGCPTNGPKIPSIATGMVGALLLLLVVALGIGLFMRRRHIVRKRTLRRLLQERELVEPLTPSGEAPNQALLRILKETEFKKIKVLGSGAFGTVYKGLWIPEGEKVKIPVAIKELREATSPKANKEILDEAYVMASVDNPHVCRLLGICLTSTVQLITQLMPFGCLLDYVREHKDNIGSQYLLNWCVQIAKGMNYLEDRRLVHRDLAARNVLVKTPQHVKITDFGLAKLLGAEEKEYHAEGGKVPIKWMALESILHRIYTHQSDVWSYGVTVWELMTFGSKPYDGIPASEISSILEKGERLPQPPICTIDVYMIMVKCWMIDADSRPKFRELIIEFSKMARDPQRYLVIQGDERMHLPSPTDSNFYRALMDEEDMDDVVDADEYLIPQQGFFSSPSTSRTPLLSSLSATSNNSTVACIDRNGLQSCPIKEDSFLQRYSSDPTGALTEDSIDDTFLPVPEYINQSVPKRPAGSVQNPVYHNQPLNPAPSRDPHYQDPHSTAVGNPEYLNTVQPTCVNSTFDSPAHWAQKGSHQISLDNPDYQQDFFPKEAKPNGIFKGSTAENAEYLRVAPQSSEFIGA
Test: EGFR in-cell Western (ICW) screening protocol (EGFR inhibition assay)
Format: cell-based
Design: unit not given here
Details: ICW assay, run 2
Experimental: The following example describes general EGFR in-cell Western (ICW) screening protocol. Methods are according to Chen et al. (2005) Analytical Biochemistry 338, 136-142 (incorporated herein by reference), except as otherwise noted. Cell Plates: A431 cells (ATCC # CRL-1555) were grown in Dulbecco's Modified Eagle Medium (DMEM; ATCC #30-2002) supplemented with 10% fetal bovine serum, 105 units/ml pen/strep (Invitrogen #15140155) and 2.1 mM L-glutamine (ATCC #30-2214). […]
Counter-ions that a name gives are not always drawn.
Please provide measured ICW 2 for the entries that follow.
Answers are plain numbers.

Take a look at these entries with their results.
{"MOLECULE": "C=CCc1c(C)nc(Nc2nc(C)c3ccccc3n2)[nH]c1=O [12610 + TFA]", "ICW 2": 21.42}
{"MOLECULE": "Cc1ccc2nc(Nc3nc(=O)c(C)c(C)[nH]3)nc(C)c2c1 [12629 + TFA]", "ICW 2": 31.95}
{"MOLECULE": "COc1cccc2c(C)nc(Nc3nc(-c4ccc(F)cc4)cc(=O)[nH]3)nc12 [compound 12778]", "ICW 2": 44.08}
{"MOLECULE": "Cc1ccc(C2CC(=O)c3cnc(Nc4nc(C)c5cc(C)c(C)cc5n4)nc3C2)cc1 (centres unmarked) [11670 + TFA]", "ICW 2": 15.63}

Switching to the query record.
Memo: COc1cccc2c(C)nc(Nc3nc(C)c(C)c(=O)[nH]3)nc12 [compound 12615] , reported ICW 2: 26.88

====

Target: EGFR (Homo sapiens, UniProt P00533)
Construct: host or cells: A431
Assay: EGFR in-cell Western (ICW) screening protocol (EGFR inhibition assay)
Assay type: cell-based
Set-up: unit not given here
Conditions: ICW assay, run 2
Description: The following example describes general EGFR in-cell Western (ICW) screening protocol. Methods are according to Chen et al. (2005) Analytical Biochemistry 338, 136-142 (incorporated herein by reference), except as otherwise noted. Cell Plates: A431 cells (ATCC # CRL-1555) were grown in Dulbecco's Modified Eagle Medium (DMEM; ATCC #30-2002) supplemented with 10% fetal bovine serum, 105 units/ml pen/strep (Invitrogen #15140155) and 2.1 mM L-glutamine (ATCC #30-2214). […]
Where a name gives a salt, the structure may show the parent alone.
Label N if ICW 2 falls below 40; label Y in every other case.

{"COMPOUND": "Cc1cc(C(F)(F)F)nc(Nc2nc(C)c3ccccc3n2)n1", "CLASS": "N"}
{"COMPOUND": "Cc1nc(Nc2nc3c(c(-c4ccccc4)n2)CCCC3)nc2c(C)cccc12 [12229 + TFA]", "CLASS": "N"}

Q: Please indicate if the recorded ICW 2 for CCCCCC1C(=O)N=C(Nc2nc(C)c3ccc(CC)cc3n2)N=C1C (centres unmarked) [12214 + TFA] meets or exceeds 40.
Ans: N

Q: Is the recorded value of ICW 2 equal to or greater than 40 for this compound? COc1cccc2c(C)nc(Nc3nc(-c4ccccc4)cc(=O)[nH]3)nc12
Ans: Y

====

target: EGFR (Homo sapiens, UniProt P00533); construct: host or cells: A431; experiment: EGFR in-cell Western (ICW) screening protocol (EGFR inhibition assay); format: cell-based; design: unit not given here; details: ICW assay, average of runs 1 and 2
Structures can show the parent of a compound that is named as a salt.
MEASURED QUANTITY: ICW Avg
Answers are plain numbers.

Below is a list of molecules. For each, state its recorded ICW Avg.
1. Cc1cc(C)nc(Nc2nc(N)c3ccccc3n2)n1
2. Cc1cccc(Cc2c(C)nc(Nc3nc(C)c4cccc(C)c4n3)[nH]c2=O)c1 [11754 + TFA]
3. Cc1cc(C)c2nc(Nc3nc4c(c(=O)[nH]3)CCCC4)nc(C)c2c1 [11483 + TFA]
4. CCCc1c(C)nc(Nc2nc(C)c3cccc(C)c3n2)[nH]c1=O [compound 12742]

Ans:
1: 65.68; 2: 29.97; 3: 29.27; 4: 49.20

Return reported ICW Avg values for all items listed beneath this line.
1. COc1ccccc1-c1cc(=O)[nH]c(Nc2nc(C)c3cc(C)c(C)cc3n2)n1 [11746 + TFA]
2. COc1cccc2c(C)nc(Nc3nc(-c4ccc(F)cc4)cc(=O)[nH]3)nc12 [compound 12620]
3. Cc1ccc2c(=O)nc(Nc3nc(C)cc(-c4ccccc4)n3)[nH]c2c1
4. CCCc1c(C)nc(Nc2nc(C)c3cc(C)ccc3n2)[nH]c1=O
5. Cc1ccc2nc(Nc3nc(CCC(C)C)cc(=O)[nH]3)nc(C)c2c1 [11795 + TFA]

Ans:
25.68
33.01
31.67
31.86
33.52

Quick one: give me ICW Avg for each item below, same order please.
1. COc1cccc2c(C)nc(Nc3nc(-c4ccc(F)cc4)cc(=O)[nH]3)nc12 [compound 12778]
2. Cc1nc(Nc2nc(CSc3ccccn3)cc(=O)[nH]2)nc2ccccc12 [12623 + TFA]
3. Cc1ccc(SCc2cc(=O)[nH]c(Nc3nc(C)c4cccc(C)c4n3)n2)cc1 [11707 + TFA]

Ans:
[37.56, 28.49, 40.51]

====

Consider the following molecules; for each one, report its ICW 1.
biological target: EGFR (Homo sapiens, UniProt P00533); construct: host or cells: A431; assay: EGFR in-cell Western (ICW) screening protocol (EGFR inhibition assay); format: cell-based; parameters: unit not given here; details: ICW assay, run 1
Structures can show the parent of a compound that is named as a salt.
One number for each entry.

Please review the entries below; each comes with its answer.
{"MOLECULE": "Cc1nc(Nc2nc(CSc3nc4ccccc4[nH]3)cc(=O)[nH]2)nc2ccccc12 [compound 11582]", "EXPERIMENTAL TARGET": "EGFR (Homo sapiens, UniProt P00533)", "ICW 1": 59.77}
{"MOLECULE": "COc1ccc2nc(Nc3nc(C)c(CCC(C)C)c(=O)[nH]3)nc(C)c2c1 [compound 11456]", "EXPERIMENTAL TARGET": "EGFR (Homo sapiens, UniProt P00533)", "ICW 1": 33.74}

For every listed record, write down its ICW 1.
1. Cc1ccc(C2CC(=O)c3cnc(Nc4nc(C)c5cc(C)c(C)cc5n4)nc3C2)cc1 (centres unmarked) [11670 + TFA]
2. C=CCc1c(C)nc(Nc2nc(C)c3cccc(OCC)c3n2)[nH]c1=O [compound 12737]
3. COc1ccccc1-c1cc(=O)[nH]c(Nc2nc(C)c3cc(C)c(C)cc3n2)n1 [11746 + TFA]
4. Cc1cc(C)c2nc(Nc3nc4c(c(=O)[nH]3)CCCC4)nc(C)c2c1 [11483 + TFA]
5. CCc1ccc2c(C)nc(Nc3nc(C)c(CCC(C)C)c(=O)[nH]3)nc2c1 [11771 + TFA]
6. CC1(C)CC(=O)c2cnc(Nc3nc(-c4ccccc4)c4cc(Cl)ccc4n3)nc2C1 [11807 + TFA]

Ans:
[34.91, 38.90, 29.51, 29.55, 51.58, 30.73]
